Where these numbers come from: paper PMC10384010

# Measurement Notes: Reversed-phase TLC on RP-2 silanized plates (Rf)
# Format: physicochemical
# Test Context: silica gel 60 RP-2 F254 silanized; water:methanol:acetonitrile 60:20:20, ammonium acetate pH 7.4
The reader will find reported RP (Rf from RP-2 TLC plate) values listed item by item below.
Enter a number only.

Illustrative cases are given below, each with its answer.
# Compound, RP (Rf from RP-2 TLC plate)
rows = [
    ("CN(C)C(=N)N=C(N)N [metformin]", 0.78),
    ("Cc1ccc(-c2cc(C(F)(F)F)nn2-c2ccc(S(N)(=O)=O)cc2)cc1 [celecoxib]", 0.75),
]

Lab note: measured RP (Rf from RP-2 TLC plate) of NC(=O)N1c2ccccc2CC(=O)c2ccccc21 [oxcarbamazepine] was 0.91
